- Test system: NCI-H226
- testSummary: NCI tumour cell line growth inhibition, 48 h
The source made the active and inactive calls. No stated cut-off is given here; in the data, active = GI50 up to about 1.1 µM and inactive = higher.
Outcomes you can answer with include only these: active, inactive

Consider the following illustrative entries.
>  <compound>
CON1C(=O)C2(CCCCC2)C(=O)C12C=CC(C)CC2 (stereo not given)

>  <group>
inactive

$$$$
>  <compound>
Cc1cccc(NC(=O)/C=C/c2ccc(N(CCC#N)CCC#N)cc2C)c1

>  <group>
inactive

$$$$
>  <compound>
CC(C)C(=O)OCC1OC(n2c(Br)nc3c(=O)[nH]c(N)nc32)C(OC(=O)C(C)C)C1OC(=O)C(C)C (stereo not given)

>  <group>
inactive

$$$$
>  <compound>
CO[P@]1(=O)O[C@@H](c2ccccc2)[C@H](O)[C@]1(O)c1ccccc1

>  <group>
inactive

$$$$

In: Call for entry Brc1cccc(C2(CCCC3(c4cccc(Br)n4)OCCO3)OCCO2)n1 :
Out: inactive

In: Call for entry CN(C)/C(=N\C#N)N(Cc1ccccc1)Cc1ccccc1 :
Out: inactive

In: Call for entry Nc1nc(-c2ccccc2)cc(-c2ccc(F)cc2)c1-c1ccc(Cl)cc1 :
Out: inactive

In: Call for entry CC(C)C1OCC(CO)CO1 (stereo not given) :
Out: inactive

In: Call for entry CCC(C)NC1=NCC(C)S1 (stereo not given) :
Out: inactive
